# Protocol summary: Biodistribution of 68Ga-labeled peptide in mice bearing B16F10 mouse melanoma
# Assay type: in vivo, C57BL/6J mice
# Run conditions: muscle, iv, total radioactivity, 2 h p.i. unblocked, C57BL/6J mice, B16F10 melanoma, read-out: Biodistribution, Muscle
Property: tissue uptake at 2 h (%ID/g)
# output: bare number, implied unit %ID/g

Sure, the documented tissue uptake at 2 h for CCCC[C@H](NC(=O)CN1CCC(NC(=O)CN2CCN(CC(=O)O)CCN(CC(=O)O)CCN(CC(=O)O)CC2)CC1)C(=O)N[C@H]1CC(=O)NCCCC[C@@H](C(N)=O)N(C)C(=O)[C@H](Cc2c[nH]c3ccccc23)N(C)C(=O)[C@H](CCCNC(=N)N)N(C)C(=O)[C@@H](Cc2ccccc2)NC(=O)[C@H](Cc2c[nH]cn2)N(C)C1=O [^68Ga-labeled CCZ01099, metal not drawn] is 0.04
